# Tested on: EPHA5;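 note: KINOMEscan kinase panel screen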
# Assay conditions: concentration: 1 μM,replicates: in singlicate; n = 1
Please go through the items and note down their %Inh.
One number for each entry, in %.

Known %Inh results, listed for orientation:
CCN1CCN(CCCC(=O)Nc2n[nH]c3nc(-c4ccc(O)cc4)c(Br)cc23)CC1 :: 0
CS(=O)(=O)c1cccc(CNc2nc(Nc3ccc4c(c3)[C@@H]3C[C@@H]4CNC3=O)ncc2C(F)(F)F)c1 :: 0
O=C(Nc1cccc(Oc2ccc3nccn3n2)c1)Nc1cccc(C(F)(F)F)c1 :: 11
CCn1c(-c2nonc2N)nc2cncc(Br)c21 :: 0

Shifting focus to the compound that follows.
Input line: Requested read-out: %Inh. Entry: `NC(=O)Nc1sc(-c2ccc(F)cc2)cc1C(N)=O`
Output line: 7
